FYI, the data here is from ChEMBL document CHEMBL1157828.

Species on record: Homo sapiens
ASSAY NOTES: Selectivity ratio of Ki for human MT2 receptor to Ki for human MT1 receptor
Reported values of Ratio Ki for individual entries

MOLECULE | Ratio Ki
CC(=O)NCCc1cccc2ccc(OCCCCOc3ccc4[nH]cc(CCNC(C)=O)c4c3)cc12 | 21
COC(=O)c1ccc(-c2ccc(OCCCCOc3ccc4cccc(CCNC(C)=O)c4c3)cc2)cc1 | 8
CC(=O)NCCc1cccc2ccc(OCCCCOc3ccc4cccc(CCNC(C)=O)c4c3)cc12 | 120
CC(=O)NCCc1cccc2ccc(OCCCCOc3ccc4c(c3)C(CCNC(C)=O)CCC4)cc12 (centres undefined) | 26
O=C(NCCc1cccc2ccc(OCCCCOc3ccc4cccc(CCNC(=O)C5CC5)c4c3)cc12)C1CC1 | 13
CC(=O)NCCc1cccc2ccc(-c3ccc4cccc(CCNC(C)=O)c4c3)cc12 | 70
CC(=O)NCCc1cccc2ccc(OCCCCOc3ccc4cccc(CC(=O)O)c4c3)cc12 | 5
CC(=O)NCCc1cccc2ccc(OCCCCOc3ccc4cccc(CCNC(=O)C5CC5)c4c3)cc12 | 10
CC(=O)NCCc1cccc2ccc(OCCCCOc3ccc(-c4ccc(C(=O)O)cc4)cc3)cc12 | 93

----------
EXPERIMENTAL TARGET: Melatonin receptor type 1A (Homo sapiens)
ASSAY NOTES: Agonist activity at human MT1 receptor expressed in CHO cells by [35S]GTPgamma binding assay
pEC50: −log10 of the molar value.

MOLECULE | pEC50
COC(=O)C(C)c1ccc2cc(OCCCCOc3ccc4cccc(CCNC(C)=O)c4c3)ccc2c1 (stereo not given) | 7.66
COC(=O)Cc1cccc2ccc(OCCCCOc3ccc4cccc(CCNC(C)=O)c4c3)cc12 | 8.54
CC(=O)NCCc1cccc2ccc(OCCCCOc3ccc4cccc(CCNC(C)=O)c4c3)cc12 | 7.14
CC(=O)NCCc1cccc2ccc(OCCCCOc3ccc4cc(C(C)C(=O)O)ccc4c3)cc12 (stereo not given) | 7.66
C=CCC(=O)NCCc1cccc2ccc(OCCCCOc3ccc4cccc(CCNC(C)=O)c4c3)cc12 | 7.92

----------
Reported values of log10 of Ki for individual entries
EXPERIMENTAL TARGET: Melatonin receptor type 1A (Homo sapiens, UniProt P48039)
Sequence (P48039 whole entry): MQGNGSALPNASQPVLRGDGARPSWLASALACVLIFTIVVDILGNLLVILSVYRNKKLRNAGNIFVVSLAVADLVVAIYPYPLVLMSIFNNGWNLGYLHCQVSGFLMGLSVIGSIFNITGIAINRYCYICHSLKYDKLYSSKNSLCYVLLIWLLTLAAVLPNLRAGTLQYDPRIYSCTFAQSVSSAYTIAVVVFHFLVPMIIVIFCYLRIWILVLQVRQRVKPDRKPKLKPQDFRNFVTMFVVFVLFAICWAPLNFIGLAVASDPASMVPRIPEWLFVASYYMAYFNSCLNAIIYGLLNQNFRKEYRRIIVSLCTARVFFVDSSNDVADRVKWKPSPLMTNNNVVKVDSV
MEASURED PARAMETER: log10 of Ki (log10 of the value in pM)

COMPOUND | EXPERIMENTAL TARGET | log10 of Ki
CC(=O)NCCc1cccc2ccc(OCCCCOc3ccc4occ(CCNC(C)=O)c4c3)cc12 | Melatonin receptor type 1A (Homo sapiens, UniProt P48039) | 3.14
CC(=O)NCCc1cccc2ccc(OCCCCOc3ccc(-c4ccc(CO)cc4)cc3)cc12 | Melatonin receptor type 1A (Homo sapiens, UniProt P48039) | 1.95
CC(=O)NCCc1cccc2ccc(OCCCCOc3ccc4[nH]cc(CCNC(C)=O)c4c3)cc12 | Melatonin receptor type 1A (Homo sapiens, UniProt P48039) | 3.61
C=CCC(=O)NCCc1cccc2ccc(OCCCCOc3ccc4cccc(CCNC(=O)CC=C)c4c3)cc12 | Melatonin receptor type 1A (Homo sapiens, UniProt P48039) | 2.96
CC(=O)NCCc1cccc2ccc(OCCCCOc3ccc4c(c3)C(CCNC(C)=O)CCC4)cc12 (stereo not given) | Melatonin receptor type 1A (Homo sapiens, UniProt P48039) | 2.41

----------
EXPERIMENTAL TARGET: Melatonin receptor type 1A (Homo sapiens, UniProt P48039)
ASSAY NOTES: Agonist activity at human MT1 receptor expressed in CHO cells by [35S]GTPgamma binding assay
The label 1 (yes) is reserved for EC50 strictly under 8 nM; 0 (no) covers values equal to or above it.

MOLECULE | CLASSIFICATION
CC(=O)NCCc1cccc2ccc(OCCCCOc3ccc4c(c3)C(CCNC(C)=O)CCC4)cc12 (stereo not given) | 1 (yes)
CC(=O)NCCc1cccc2ccc(OCCCCOc3ccc(-c4ccc(CO)cc4)cc3)cc12 | 1 (yes)
CC(=O)NCCc1cccc2ccc(OCCCCOc3ccc4cccc(CCNC(=O)C5CC5)c4c3)cc12 | 0 (no)
CC(=O)NCCc1cccc2ccc(OCCCCOc3ccc(-c4ccc(C(=O)O)cc4)cc3)cc12 | 0 (no)
CC(=O)NCCc1cccc2ccc(OCCCCOc3ccc4cccc(CCNC(=O)c5ccco5)c4c3)cc12 | 0 (no)

----------
Reported values of pKi for individual entries
Target protein (sequence): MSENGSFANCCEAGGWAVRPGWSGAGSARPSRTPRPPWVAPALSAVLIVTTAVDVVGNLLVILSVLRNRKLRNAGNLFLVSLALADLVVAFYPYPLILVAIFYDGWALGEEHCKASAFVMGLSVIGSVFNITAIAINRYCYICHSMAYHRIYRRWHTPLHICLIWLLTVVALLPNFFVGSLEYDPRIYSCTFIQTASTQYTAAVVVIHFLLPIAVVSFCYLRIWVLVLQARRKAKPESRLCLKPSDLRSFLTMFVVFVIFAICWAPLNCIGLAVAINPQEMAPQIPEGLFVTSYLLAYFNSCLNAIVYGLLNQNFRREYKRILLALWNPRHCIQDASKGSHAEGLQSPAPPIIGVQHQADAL
pKi: −log10 of the molar value.

COMPOUND | pKi
CC(=O)NCCc1cccc2ccc(OCCCCOc3ccc4cccc(CCNC(=O)C5CC5)c4c3)cc12 | 7.95
CC(=O)NCCc1cccc2ccc(OCCCCOc3ccc4cccc(CC(=O)O)c4c3)cc12 | 7.34
CC(=O)NCCc1cccc2ccc(OCCCCOc3ccc4cccc(CCNC(=O)c5ccco5)c4c3)cc12 | 7.93
COC(=O)C(C)c1ccc2cc(OCCCCOc3ccc4cccc(CCNC(C)=O)c4c3)ccc2c1 (centres undefined) | 8.37
C=CCC(=O)NCCc1cccc2ccc(OCCCCOc3ccc4cccc(CCNC(C)=O)c4c3)cc12 | 8.07
CC(=O)NCCc1cccc2ccc(OCCCCOc3ccc(-c4ccc(C(=O)O)cc4)cc3)cc12 | 7.29
C=CCC(=O)NCCc1cccc2ccc(OCCCCOc3ccc4cccc(CCNC(=O)CC=C)c4c3)cc12 | 7.96
O=C(NCCc1cccc2ccc(OCCCCOc3ccc4cccc(CCNC(=O)C5CC5)c4c3)cc12)C1CC1 | 7.87
COC(=O)Cc1cccc2ccc(OCCCCOc3ccc4cccc(CCNC(C)=O)c4c3)cc12 | 8.74

----------
Reported values of EC50 for individual entries
EXPERIMENTAL TARGET: UniProtKB P49286
Sequence (P49286 whole entry): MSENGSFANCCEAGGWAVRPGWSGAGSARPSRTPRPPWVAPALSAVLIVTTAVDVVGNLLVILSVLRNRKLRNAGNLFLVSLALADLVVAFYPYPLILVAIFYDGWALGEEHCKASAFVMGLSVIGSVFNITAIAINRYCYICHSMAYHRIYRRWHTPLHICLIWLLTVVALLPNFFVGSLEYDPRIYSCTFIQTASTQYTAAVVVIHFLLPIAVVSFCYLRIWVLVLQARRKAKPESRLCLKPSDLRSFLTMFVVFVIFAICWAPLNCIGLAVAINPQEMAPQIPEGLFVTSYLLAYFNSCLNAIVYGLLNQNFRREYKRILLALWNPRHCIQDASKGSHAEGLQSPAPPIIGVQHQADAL
ASSAY NOTES: Agonist activity at human MT2 receptor expressed in CHO cells by [35S]GTPgamma binding assay

COMPOUND | EXPERIMENTAL TARGET | EC50 (nM)
CC(=O)NCCc1cccc2ccc(OCCCCOc3ccc4cccc(CCNC(C)=O)c4c3)cc12 | UniProtKB P49286 | 405
O=C(NCCc1cccc2ccc(OCCCCOc3ccc4cccc(CCNC(=O)C5CC5)c4c3)cc12)C1CC1 | UniProtKB P49286 | 134
CC(=O)NCCc1cccc2ccc(OCCCCOc3ccc4scc(CCNC(C)=O)c4c3)cc12 | UniProtKB P49286 | 20.6
COC(=O)C(C)c1ccc2cc(OCCCCOc3ccc4cccc(CCNC(C)=O)c4c3)ccc2c1 (configuration not stated) | UniProtKB P49286 | 88
C=CCC(=O)NCCc1cccc2ccc(OCCCCOc3ccc4cccc(CCNC(=O)CC=C)c4c3)cc12 | UniProtKB P49286 | 40.2
CC(=O)NCCc1cccc2ccc(OCCCCOc3ccc4cc(C(C)C(=O)O)ccc4c3)cc12 (configuration not stated) | UniProtKB P49286 | 161
CC(=O)NCCc1cccc2ccc(OCCCCOc3ccc(-c4ccc(CO)cc4)cc3)cc12 | UniProtKB P49286 | 26

----------
Species on record: Homo sapiens
ASSAY NOTES: Selectivity ratio of Ki for human MT2 receptor to Ki for human MT1 receptor
Assign rule met whenever Ratio Ki does not fall below 30; assign rule not met whenever it does.

COMPOUND | CLASSIFICATION
C=CCC(=O)NCCc1cccc2ccc(OCCCCOc3ccc4cccc(CCNC(C)=O)c4c3)cc12 | rule not met
COC(=O)Cc1cccc2ccc(OCCCCOc3ccc4cccc(CCNC(C)=O)c4c3)cc12 | rule not met
CC(=O)NCCc1cccc2ccc(OCCCCOc3ccc4cc(C(C)C(=O)O)ccc4c3)cc12 (stereo not given) | rule met
COC(=O)C(C)c1ccc2cc(OCCCCOc3ccc4cccc(CCNC(C)=O)c4c3)ccc2c1 (stereo not given) | rule not met
C=CCC(=O)NCCc1cccc2ccc(OCCCCOc3ccc4cccc(CCNC(=O)CC=C)c4c3)cc12 | rule not met
O=C(NCCCc1ccc2nc(CCCCc3ccccc3)oc2c1)C1CC1 | rule met
CC(=O)NCCc1cccc2ccc(OCCCCOc3ccc4occ(CCNC(C)=O)c4c3)cc12 | rule not met
CC(=O)NCCc1cccc2ccc(OCCCCOc3ccc4scc(CCNC(C)=O)c4c3)cc12 | rule not met
CC(=O)NCCc1cccc2ccc(OCCCCOc3ccc4cccc(CCNC(=O)c5ccco5)c4c3)cc12 | rule not met
CC(=O)NCCc1cccc2ccc(OCCCCOc3ccc(-c4ccc(CO)cc4)cc3)cc12 | rule met
